All values here come from the supplement of paper PMC6555819.

Tested on: PPARg DBDmut:RXRa IVT, anti-PPARg (DBD mutation: PPARg1 K132A/R137A, NR concentration 270 nM, RXRa partner concentration 90 nM)
Assay: PBM binding z-score (relative to random genomic background probes); higher = stronger binding; sequences stand for … in GC…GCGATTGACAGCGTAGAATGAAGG
The label depends only on PBM binding z-score: Met if it is at least -0.1, Not met if it is smaller.

- sequence.input: "CGAACTAGGTCAAGGACAGTGATTCTCCGCACGC"
  class.label: "Met"
- sequence.input: "ACTAGCAGGCTAAGTTTGGGTCACTCAAACAAAG"
  class.label: "Not met"
- sequence.input: "CGTCCAAGCTCATAGGAGGTCAGTGAAGACAGAT"
  class.label: "Not met"
- sequence.input: "TCTTGTAGTTCAAAGGTTAAGAAAGCCGAAGCCT"
  class.label: "Met"
- sequence.input: "TCGAGTAGGTTAGGGGAATTCAGAATGGCGTCGA"
  class.label: "Met"
- sequence.input: "CCTCGGAGGACAGAAGGTGAGAGCTGTCCGCTTT"
  class.label: "Not met"
- sequence.input: "TCTCGGAGGACACGAAGGGTCAGAGCTCGACATC"
  class.label: "Met"
- sequence.input: "TAGCCTAGGTCAGTGGGCCAGTATAGTACGCATC"
  class.label: "Not met"
- sequence.input: "CCAGACAGGTTAGAAGGTAACTCAGCCTCGATTA"
  class.label: "Not met"
- sequence.input: "ATCTCTAGGTAAAGATAGTTCAATGAATGCAAAT"
  class.label: "Met"
- sequence.input: "CCTAGCAGGCCGGGGTCACTCAAGCATTTCGCTT"
  class.label: "Not met"
- sequence.input: "TCGAGCAGGTTAGTCGGGGCATTCAGCCAACATA"
  class.label: "Not met"

###

System: PPARa:RXRa (NR concentration 270 nM, RXRa partner concentration 90 nM)
Test: PBM binding z-score (relative to random genomic background probes); higher = stronger binding; sequences stand for … in GC…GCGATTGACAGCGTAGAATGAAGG
outcome.measure: PBM binding z-score

- sequence.input: "CCAGACAGGTGAAGGGTAACTCAGTCTGGTACGC"
  outcome.measure: "PBM binding z-score"
  measured.result: 1.76
- sequence.input: "GCTGCTAGGGCAGGTTGGTCAGCTAACGGGTACG"
  outcome.measure: "PBM binding z-score"
  measured.result: -0.594
- sequence.input: "CCAGACTGGTGAGAAGGTAACTCAGCCTCGATTA"
  outcome.measure: "PBM binding z-score"
  measured.result: -0.19
- sequence.input: "TCTCGGAGGACAGGAAGGTCAGAGCTTTCCAGAG"
  outcome.measure: "PBM binding z-score"
  measured.result: 1.87
- sequence.input: "GTACCAAGGTGAATAGGTCGTCGATGAGTAGGCG"
  outcome.measure: "PBM binding z-score"
  measured.result: 2.45
- sequence.input: "CTACCAAGGTGAACAAGGTCGTTCATTACTATTC"
  outcome.measure: "PBM binding z-score"
  measured.result: 3.12
- sequence.input: "CCTATTAGTTGACCATAAGGACAACCGAAGCTCG"
  outcome.measure: "PBM binding z-score"
  measured.result: 0.262
- sequence.input: "TTACCATGGTGAAGGTCGTTGATCCCTCTGTAGA"
  outcome.measure: "PBM binding z-score"
  measured.result: 1.64
- sequence.input: "TCGAGTAGGTTGGGGGCATTCAGAATGGCGTCGA"
  outcome.measure: "PBM binding z-score"
  measured.result: 2.48
- sequence.input: "CCTAGCAGGCTAATCTGGGTCACTCAAGGCTTGA"
  outcome.measure: "PBM binding z-score"
  measured.result: 3.14
- sequence.input: "CGAACTAGGACAAGGACAGTGAATCTCCGCACGC"
  outcome.measure: "PBM binding z-score"
  measured.result: 0.455
- sequence.input: "ATCGAAAGGTCGTGAGGCGAGTATACAGAAAGGC"
  outcome.measure: "PBM binding z-score"
  measured.result: 5.07
